- assayed target: UniProt:P00742
- Sequence (P00742 235-488 limits assumed): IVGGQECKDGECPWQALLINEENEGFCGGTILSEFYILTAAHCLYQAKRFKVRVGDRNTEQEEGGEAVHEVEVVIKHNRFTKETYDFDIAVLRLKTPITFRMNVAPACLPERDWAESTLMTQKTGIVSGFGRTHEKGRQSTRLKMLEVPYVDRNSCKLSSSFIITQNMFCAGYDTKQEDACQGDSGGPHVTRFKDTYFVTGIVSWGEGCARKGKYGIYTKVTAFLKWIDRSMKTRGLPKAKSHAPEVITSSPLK
- Sequence (P00742 41-179 limits assumed): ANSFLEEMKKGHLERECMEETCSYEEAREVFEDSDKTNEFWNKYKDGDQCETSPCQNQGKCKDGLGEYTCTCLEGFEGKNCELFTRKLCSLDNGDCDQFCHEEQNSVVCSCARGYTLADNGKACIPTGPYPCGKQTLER
Counter-ions that a name gives are not always drawn.
recorded endpoint: Ki (nM)
Note: unit nM is implicit; provide only the numeric part.

Form field Ki, entry Cc1cc(OCc2cccc(C(=N)N)c2)cc(OS(=O)(=O)c2ccccc2Cl)c1 [Example 6, hydrochloride] : 2720

---

- assayed target: bovine trypsin (Bos taurus, UniProt P00760)
- Sequence (P00760 24-246): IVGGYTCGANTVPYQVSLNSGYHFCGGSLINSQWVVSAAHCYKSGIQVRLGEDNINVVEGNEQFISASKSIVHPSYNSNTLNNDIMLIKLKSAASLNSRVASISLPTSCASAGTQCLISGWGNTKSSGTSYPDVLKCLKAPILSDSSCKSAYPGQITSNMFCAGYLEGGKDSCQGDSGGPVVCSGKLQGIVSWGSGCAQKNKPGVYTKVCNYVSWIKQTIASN
Structures can show the parent of a compound that is named as a salt.
recorded endpoint: pKi
The read-out pKi is expressed as -log10 of concentration in moles per litre.

# value of pKi, bovine trypsin (Bos taurus, UniProt P00760), item Cc1cc(OCc2cccc(C(=N)NO)c2)cc(OS(=O)(=O)c2ccccc2Cl)c1 [Example 7, hydrochloride] = 5.28
